Molecular target: GlcNAc(b1-2)[GlcNAc(b1-4)]Man(a1-3)[GlcNAc(b1-2)Man(a1-6)]Man(b1-4)GlcNAc(b1-4)GlcNAc
Assay: glycan array binding signal (z-score within array); higher = stronger binding
Conditions: glycan notation: IUPAC condensed, linker removed
Shown is part of a subset that was picked to be rich in the strongest signals.
endpoint_name: glycan array binding signal (z-score)
Returns: the value as a bare number; no unit string appended.

Value lookup for glycan array binding signal (z-score); key = PpFlo3 (Pichia pastoris) (protein) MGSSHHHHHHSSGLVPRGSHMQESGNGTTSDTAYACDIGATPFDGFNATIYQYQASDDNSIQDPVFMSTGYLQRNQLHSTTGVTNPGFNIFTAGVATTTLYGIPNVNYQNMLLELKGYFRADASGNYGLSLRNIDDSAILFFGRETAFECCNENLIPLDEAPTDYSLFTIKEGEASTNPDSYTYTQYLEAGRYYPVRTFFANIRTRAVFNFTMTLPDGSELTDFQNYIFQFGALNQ 4.67

The origin of these recorded values is the supplement of paper PMC8728848.
